System: Staphylococcus aureus
Experiment: microbe, parasite or virus in culture
Settings: ATCC 43300, 18 h, ASSAY_TEST Inhibition of Bacterial Growth, detection method Absorption (OD600), MEDIA CAMHB, plate type 384well, NBS, CORNING #3640
Description: Antibacterial activity against Staphylococcus aureus MRSA ATCC 43300 (CO-ADD:GP_020); MIC in CAMBH media, using NBS plates, by OD(600)
MEASUREMENT_KIND: MIC

Look over these answered cases.
INSERT INTO measurements (structure_smiles, measurement_kind, obs_value) VALUES
  ('COc1ccc(/C=C/c2ccc(C(=O)Nc3cc(C(=O)Nc4nc(C(=O)NCCN5CCOCC5)c(CCc5ccccc5)s4)n(C)c3)cn2)cc1.O=C(O)C(F)(F)F.O=C(O)C(F)(F)F', 'MIC', '> 32 µg/mL'),
  ('CC(C)n1cc(NC(=O)c2cc(NC(=O)c3ccc(/C=C/c4cnc5ccccc5c4)cc3)cn2C)cc1C(=O)NCCN1CCOCC1.O=C(O)C(F)(F)F.O=C(O)C(F)(F)F', 'MIC', '1 µg/mL'),
  ('COCCOC1CCN(CCNC(=O)c2cc(NC(=O)c3cc(NC(=O)c4ccc(/C=C/c5cnc6ccccc6c5)cc4)cn3C)cn2C)CC1', 'MIC', '0.5 µg/mL'),
  ('Cn1cc(NC(=O)c2ccc(/C=C/c3ccncc3)cc2)cc1C(=O)Nc1cc(C(=O)NCCN2CCOCC2)n(CCCN2CCN(Cc3cccc4ccccc34)CC2)c1.O=C(O)C(F)(F)F.O=C(O)C(F)(F)F.O=C(O)C(F)(F)F.O=C(O)C(F)(F)F', 'MIC', '> 32 µg/mL'),
  ('COCCOC1CCN(CCNC(=O)c2cc(NC(=O)c3cc(NC(=O)c4ccc(/C=C/c5ccc6nonc6c5)cc4)cn3C)cn2C)CC1.O=S(=O)(O)O', 'MIC', '> 32 µg/mL'),
  ('Cn1cc(NC(=O)c2cc(NC(=O)c3ccc(/C=C/c4cnc5ccccc5c4)cc3)cn2C)cc1C(=O)NCCC(=N)N.O=C(O)C(F)(F)F.O=C(O)C(F)(F)F', 'MIC', '> 32 µg/mL'),
  ('CC(C)n1cc(NC(=O)c2cc(NC(=O)c3cc4ccccc4oc3=O)cn2C)cc1C(=O)Nc1cc(C(=O)NCCCN(C)C)n(C)c1.O=C(O)C(F)(F)F', 'MIC', '> 32 µg/mL'),
  ('CC(C)CCc1sc(NC(=O)c2cc(NC(=O)c3cc(NC(=N)N)cn3C)cn2C)nc1C(=O)NCCCN(C)C.O=C(O)C(F)(F)F.O=C(O)C(F)(F)F', 'MIC', '16 µg/mL'),
  ('Cn1cc(NC(=O)c2cc(NC(=O)c3ccc(/C=C/c4ccc5ccccc5c4)cc3)cn2C)cc1C(=O)NCCN1CCOCC1.O=C(O)C(F)(F)F', 'MIC', '> 32 µg/mL'),
  ('COC(=O)c1ccc(C(=O)Nc2cc(C(=O)Nc3cc(C(=O)Nc4nc(C(=O)NCCCN(C)C)c(CCC(C)C)s4)n(C)c3)n(C)c2)cc1.O=C(O)C(F)(F)F', 'MIC', '> 32 µg/mL');

Query block: Which measured MIC belongs to Cn1cc(NC(=O)c2cc(NC=O)cn2C)cc1C(=O)NCCC(=N)N.O=C(O)C(F)(F)F , tested on Staphylococcus aureus?
Result block: > 32 µM

Query block: Proceed to COc1cccc(/C=C/c2ccc(C(=O)Nc3cc(C(=O)Nc4cc(C(=O)NCCN5CCCCC5)n(CCCc5ccccc5)c4)n(C)c3)cc2)c1.O=C(O)C(F)(F)F
Result block: > 32 µg/mL

Query block: How about this molecule: COc1ccc(C(=N)Nc2cc(C(=O)Nc3nc(C(=O)NCCN4CCOCC4)c(CCc4ccccc4)s3)n(C)c2)cc1.O=C(O)C(F)(F)F.O=C(O)C(F)(F)F
Result block: 8 µg/mL
